Test system: MS2 coat protein
Assay: apparent KD of MS2 coat protein; designed switch direction (-1 OFF switch, 1 ON switch): -1; higher = weaker reporter binding
Details: input ligand: none
measuredMetric: apparent KD of MS2 coat protein (nM)
Record the value in nM, omitting the unit from your answer.

| biosequence | number |
| --- | --- |
| CAGGUGUGAGGAUAUGUGAUUAUGAUAGACCGAGUCUACCCACAGAAGGCACAUGAGGAUCACCCAUGUGAGUA [Eternabot (L1) Solution 75] (Eterna round: R97, puzzle: Exclusion 4) | 46.6 |
| GGUGGGCUAGGAUAUGCUUUGGGCAGGCAUUCCUUCGAUAAACUUGAGGAUCACCCAAGUAGAAGGAGCUUGCC [salish99_ex2_r4_025] (Eterna round: R97, puzzle: Exclusion 2) | 10.7 |
| UGUUGUUACGUAGGAUAUCCACCAACAGGUGGAAGGAUAUGUACGCAGAAGGUUCGCCAACAGGCGGAGAAGGACGGGUUAACA [pwkr exNG2 2xF7 2xFMN.27] (Eterna round: R96, puzzle: Exclusion NG 2) | 300 |
| AGCAGACGAGGAUAUAAAUUUGAUAACAUGAGGAUCACCCAUGUGAUCGAUAGAUCAAAUUUAGAAGGUGUCUGCU [E5/7-B1] (Eterna round: R97, puzzle: Exclusion 5) | 490 |
| GCUAGGAAUGUCAGGAUAUGCAGAUCCUUGGAUCUGCAGAAGGGACAUGAGGAUCACCCAUGUGCUAACCUAGC [Mat - Exclusion 4 - JL Mod - D7] (Eterna round: R97, puzzle: Brourd's mod of Exclusion 4) | 24.3 |
| UACAUGAGGAUCACCCAUGUUUUGUCGUGUAUGGUAUUUAUCUAGGAUAUCAAUUUAGUUAUUUAUGAGAAGGAGAAUAUUAAU [JMF's solution 18] (Eterna round: R96, puzzle: Exclusion NG 3) | 43.1 |
| UUAAGUAUAGAGGAUAUAUAAUAUUUAUUAACUAUAGAAGGCUAUACAUGAGGAUCACCCAUGUAUAUUGGGAU [JR_Ex6_Sub067] (Eterna round: R97, puzzle: Exclusion 6) | 41 |
| UGAGUGCUGCGAGGAUAUACAUGAGGAUCACCCAUGUUUACCUGUGAGGCAAAGCCUCACAGGUUGUAGAAGGCGCAGUACUCU [Mat - Exclusion NG 2 - Mod of JL - D41] (Eterna round: R96, puzzle: Exclusion NG 2) | 18.6 |

The record that follows has no apparent KD of MS2 coat protein shown yet.
What value of apparent KD of MS2 coat protein has been reported for the following sequence? GCAGCUUAGUUAACAGACUGUUACAUGAGGAUCACCCAUGUGCAGGAUAUGGUCUGGAUUACAGGCCAGAAGGGUACAGGCUGC [Eli exng3 - 017] (Eterna round: R96, puzzle: Exclusion NG 3) 13.4

---

System: MS2 coat protein
Experiment: apparent KD of MS2 coat protein, switch ON state; designed switch direction (-1 OFF switch, 1 ON switch): -1; higher = weaker reporter binding
Details: FMN input: 0 or 200 uM; Eterna round: R93 (includes R88 designs)
Decide by apparent KD of MS2 coat protein: equal to or exceeding 30 nM means condition met, less means condition not met.

Would you please look over these solved cases?
| biosequence | classification |
| --- | --- |
| GCUUGCGAAGGAUAUACAUGAGGAUCACCCAUGUGAGAGAAAAAAGUGAGAAAGAAAAGUAGAAGGUCGUGAGG [salish99-ex3-95] | condition not met |
| GUGUACAGAGGAUAUACAUGAGCAUGGAAACAUGCAAGAUCACAUGAGGAUCACCCAUGUAGAAGGCUGUACAC [Ex2: 733] | condition met |
| AAAAAACAUGAGGAUCACCCAUGUAAGGAUAUCCAAAAGAAAAGAAAAGAAAGAAGAAGGAGAAGGUACAAGAA [Sahure] | condition met |
| GAUCCACAUGAGGAUCACCCAUGUGAGGAUAUCGUGCAGAAAAAAAAAAAAAACUGCACGAGAAGGCACAUGGG | condition not met |
| GGAAAACAUGAGGAUCACCCAUGUGAGGAUAUGCAGGAUAUAGAAGGAAAAAAAAAAAGCAGAAGGUACGAAGG [salish99-ex1-17] | condition not met |
| AGAAUACAUGAGGAUCACCCAUGUGAGGAUAUCAAAAGAAAAAGAAAAGAAAAGAAAAUGAGAAGGCACAAAAG [EX 1 May 14] | condition met |
| AAAAGGUGAGGAUAUUCGAAAAUAAAAUAAAAUAAAAUAAAGAAGAAGGCACAUGAGGAUCACCCAUGUAAUAA [LROPPY Exclusion 4 - v02_deltaG=2.94 break up the As] | condition not met |
| AAAAAUGGAGGAUAUACGAACAUGUCAAAAGACGUGAAGGGACAUGAGGAUCACCCAUGUAGAAGGCUAAAAAA [JL Stem Breaker 3] | condition met |

Evaluate AAAAAGUCAGGAUAUAUCAAAAAAAAAGAAAAAAAAAAAAGAUAGAAGGGACAUGAGGAUCACCCAUGUAAAAA [water's exclusion 4 last] : apparent KD of MS2 coat protein at minimum 30 nM? condition met

Assess whether reported apparent KD of MS2 coat protein for AACAAACAUGAGGAUCACCCAUGUGAGGAUAUCGAAACAACAAACAACAAACAACAAACGAGAAGGCGCAACAA [e1-2] sits at 30 nM or higher. condition not met

---

Test system: MS2 coat protein
Assay: apparent KD of MS2 coat protein; designed switch direction (-1 OFF switch, 1 ON switch): -1; higher = weaker reporter binding
Conditions: Eterna round: R95; input ligand: microRNA oligo, concentration not stated
measuredMetric: apparent KD of MS2 coat protein (nM)
Write the answer as a number in nM, unit excluded.

| biosequence | unitName | apparent KD of MS2 coat protein |
| --- | --- | --- |
| GAGAAGGUAGGAUAUACGAAUAAAUAGGGUAGGAAGAAGACACAUGAGGAUCACCCAUGUAGAAGGACCAAGAU [Mat - Exclusion 2 - Mod of my Tesla design - D35] (puzzle: Exclusion 2) | nM | 18.1 |
| AAAUACAAGUAAAGAUCUUACAUGAGGAUCACCCAUGUGCUCGUCUUAUAAAGUACUAUCACGAAAGUGAUAGUACA [Sensor 3, v1 - 25] (puzzle: Sensor v3, turn-off variant 1) | nM | 159 |
| GGUACUAACACGAAAGUGUUAGUACUGUAGGUUUGUGUUACAUGAGGAUCACCCAUGUCCUCAUAAGCUCGUCUUGU [JL-sv3-2.22 mat747 mod] (puzzle: Sensor v3, turn-off variant 2) | nM | 246 |
| AGUGCGUAUGUGAGGAUAUGCUGGUCCUUGGCUCGGCAGAAGGCACAUGAGGAUCACCCAUGUGGUGUCGUACG [salish99_Bmod_ex4_065] (puzzle: Brourd's mod of Exclusion 4) | nM | 48.8 |
| ACGCCGCAAGGAUAUCGUAAAGCAGACAUGAGGAUCACCCAUGUGAUAUCAUAAAGGCCACGAGAAGGUGCACAAG [Quoredin] (puzzle: Exclusion 5) | nM | 21.2 |

Return apparent KD of MS2 coat protein measured with MS2 coat protein given this sequence: GAGAAGGUAGGAUAUACGAAGAAAGAGGGUAGUAAUAAUACACAUGAGGAUCACCCAUGUAGAAGGACCAAGAG [Mat - Exclusion 2 - Mod of my Tesla design - D45] (puzzle: Exclusion 2) 24.7

Hello, I am looking for reported apparent KD of MS2 coat protein with MS2 coat protein for AAGGAUAGAGGAUAUACGUAGAUACAGAUUCAUGUAGAACUACAUGAGGAUCACCCAUGUAGAAGGCUAUCCUA [Fiskers Ex 2 - 6] (puzzle: Exclusion 2) . Could you help? 26.5

Query for MS2 coat protein: what apparent KD of MS2 coat protein does the record show for UUUAAUUUUUUUUUUUUACAAGCUUUUUGCUCGUCUUAUACAUGAGGAUCACCCAUGUGAAUGGAAGAUAAAUUAUC [JMF 8] (puzzle: Sensor v3, turn-off variant 2) ? 16.3

So what apparent KD of MS2 coat protein did AGACAGUCAGGAUAUACAUGAGGAUCACCCAUGUUGAGAUGAGAAAGGGCAGGAAGAGGUAGAAGGGACAAGAA [JR_Exclu3_Sub035] (puzzle: Exclusion 3) get with MS2 coat protein? 19.2

Please tell me: apparent KD of MS2 coat protein of CUUUUGUGAGGAUAUCAGUAGUAAAAAAUUAAAAUUACUACUGAGAAGGCACAUGAGGAUCACCCAUGUUCCUC [salish99_ex4_r3_021] (puzzle: Exclusion 4) , system MS2 coat protein? 37.7

---

Catalogue of apparent KD of MS2 coat protein readings, one per entry.
Tested on: MS2 coat protein
Assay: apparent KD of MS2 coat protein; higher = weaker reporter binding
Conditions: Eterna round: R107; input ligand: theophylline 2 mM
State just the number; it will be interpreted in nM.

Worked set:
| biosequence | tgt | number |
| --- | --- | --- |
| ACGUCCAGGUUAAUCGUGGGCAUGGUCGAUACCAGUAUUUUAAUCUACCCUUGGCAGCGACAUGAGGAUCACCCAUGUGCGAUGA [XTheo A #16] | MS2 coat protein | 40.1 |
| UGGUACAUGAGGAUCACCCAUGUUCCAGAUACCAGCGUCCCGGUGCGCCCUUGGCAGCUGGUGGUACAUGAGGAUCACCCAUGUG [Exclusion Theophylline A GF14] | MS2 coat protein | 61.2 |
| CAUUUUAGAAAACUAAAAUGAGUGGGUGAACGAGGACCGGUACGGCCGCCACUCGGACAUGAGGAUCACCCAUGUCCAUGUGAAA [AstrosExyTryA#22] | MS2 coat protein | 14.4 |
| UGUACUAUGUGAAGGAGCGAGAAGGAGCGAACAUGAGGAUCACCCAUGUACAGGUAGGUCGCUCAGGUAGGUCGCACAUAGUACU [ArgBS - Double aptamer] | MS2 coat protein | 14.4 |
| UACAUGAGGAUCACCCAUGUAUGUAUCGAAGGAGCGCGUGUAAACGCAGGUAGGUCGCGAACAUGAGGAUCACACAUGAGGAUCA [Same State Arginine A] | MS2 coat protein | 37.5 |

Next item in the queue.
Which measured apparent KD of MS2 coat protein value corresponds to ACAUGAGGAUCACCCAUGUGAAGGCACGAUACCAGCUGAUCCCGUGGCCCUUGGCAGCGUCCGGUGUGGUCCGGCGGAUGGGACG [xwxmullin] ? 30.9
